Target: full length human c-Met on cells (human, UniProt P08581 25-1390)
Sequence (P08581 25-1390): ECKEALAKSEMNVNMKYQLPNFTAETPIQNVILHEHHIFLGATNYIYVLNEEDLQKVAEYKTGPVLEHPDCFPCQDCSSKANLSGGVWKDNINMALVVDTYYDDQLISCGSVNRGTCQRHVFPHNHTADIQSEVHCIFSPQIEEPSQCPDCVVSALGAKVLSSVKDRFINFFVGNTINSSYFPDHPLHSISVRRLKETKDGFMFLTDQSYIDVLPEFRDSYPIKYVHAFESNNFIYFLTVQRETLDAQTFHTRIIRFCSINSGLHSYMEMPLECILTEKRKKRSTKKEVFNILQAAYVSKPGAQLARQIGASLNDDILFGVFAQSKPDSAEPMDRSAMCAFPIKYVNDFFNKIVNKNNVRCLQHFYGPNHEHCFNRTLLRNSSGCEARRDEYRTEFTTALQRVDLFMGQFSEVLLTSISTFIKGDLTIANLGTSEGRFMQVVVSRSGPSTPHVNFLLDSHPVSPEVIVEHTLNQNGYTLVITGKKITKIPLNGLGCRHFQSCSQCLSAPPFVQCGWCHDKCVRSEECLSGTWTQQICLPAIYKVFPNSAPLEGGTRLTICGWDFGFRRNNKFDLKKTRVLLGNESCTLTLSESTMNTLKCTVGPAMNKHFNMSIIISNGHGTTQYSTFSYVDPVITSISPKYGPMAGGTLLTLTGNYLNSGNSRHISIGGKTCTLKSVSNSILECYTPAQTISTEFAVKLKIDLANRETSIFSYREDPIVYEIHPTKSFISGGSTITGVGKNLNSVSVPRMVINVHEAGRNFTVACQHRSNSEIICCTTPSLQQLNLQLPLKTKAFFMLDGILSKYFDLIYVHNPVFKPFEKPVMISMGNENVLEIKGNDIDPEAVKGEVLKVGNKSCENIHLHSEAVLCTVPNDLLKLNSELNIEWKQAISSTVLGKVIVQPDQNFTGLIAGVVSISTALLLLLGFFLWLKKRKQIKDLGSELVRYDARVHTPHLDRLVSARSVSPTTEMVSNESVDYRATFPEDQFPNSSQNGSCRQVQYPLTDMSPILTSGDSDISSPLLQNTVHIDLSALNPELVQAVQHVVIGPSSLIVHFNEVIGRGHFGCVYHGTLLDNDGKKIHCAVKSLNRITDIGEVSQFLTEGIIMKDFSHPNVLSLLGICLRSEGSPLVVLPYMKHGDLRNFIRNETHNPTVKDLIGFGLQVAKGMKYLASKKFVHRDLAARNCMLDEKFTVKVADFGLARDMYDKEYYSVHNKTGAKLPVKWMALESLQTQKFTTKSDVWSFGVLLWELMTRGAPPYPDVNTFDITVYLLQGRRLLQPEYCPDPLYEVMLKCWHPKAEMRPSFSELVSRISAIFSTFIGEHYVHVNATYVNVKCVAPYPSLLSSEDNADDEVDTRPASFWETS
Assay: cell-based or functional assay
Reported EC50 [nM] NCI-H441 Migration IgG values are given for each entry in this list.
Give the number; nM is assumed, so skip it.

Some binders with recorded EC50 [nM] NCI-H441 Migration IgG:
binder | units_text | EC50 [nM] NCI-H441 Migration IgG
04687 in IgG format (antibody, V domains shown) VH: QVQLVQSGAEVKKPGSSVKVSCKASGGTFSSYAISWVRQAPGQGLEWMGGIDPFGTANYAQKFQGRVTITADESTSTAYMELSSLRSEDTAVYYCARVYQDVWGQGTLVTVSS VL: DIVMTQSPDSLAVSLGERATINCRSSQSILYGINNNFLGWYQQKPGQPPKLLIYWASTRESGVPDRFSGSGSGTDFTLTISSLQAEDVAVYYCQQYYNHPHTFGQGTKVEIKR | nM | 1.68
04536 in IgG format (antibody, V domains shown) VH: QVQLVQSGAEVKKPGASVKVSCKASGYTFTGYYMNWVRQAPGQGLEWMGIINPWTGNTNYAQKFQGRVTMTRDTSISTAYMELSSLRSEDTAVYYCARDPGFFYYTPSDLWGQGTLVTVSS VL: DIELTQPPSVSVAPGQTARISCSGDSIGNKYVHWYQQKPGQAPVLVIYADSDRPSGIPERFSGSNSGNTATLTISGTQAEDEADYYCQAYDSSMLRVFGGGTKLTVLG | nM | 0.61
04537 in IgG format (antibody, V domains shown) VH: QVQLVQSGAEVKKPGESLKISCKGSGYSFSNYWIGWVRQMPGKGLEWMGFIFPDTSYTRYSPSFQGQVTISADKSISTAYLQWSSLKASDTAMYYCARVKLITDYWGQGTLVTVSS VL: DIELTQPPSVSVAPGQTARISCSGDSLRSYFVSWYQQKPGQAPVLVIYDDDDRPSGIPERFSGSNSGNTATLTISGTQAEDEADYYCASWDTLSDVEVFGGGTKLTVLG | nM | 0.14

Now for a further binder.
Reported EC50 [nM] NCI-H441 Migration IgG ( 04541 in IgG format (antibody, V domains shown) VH: QVQLQESGPGLVKPGETLSLTCTVSGGSISSSSYYWNWIRQAPGKGLEWIGEIYFGWTYYNPSLKGRVTISVDTSKNQFSLKLSSVTAEDTAVYYCARGYEFHGYTTFDYWGQGTLVTVSS VL: DIELTQPPSVSVAPGQTARISCSGDNIGSYYVYWYQQKPGQAPVLVIYDDNDRPSGIPERFSGSNSGNTATLTISGTQAEDEADYYCQSYDFPSIVFGGGTKLTVLG ) = 0.27
